- Tested on: HOP-62 NSCLC
- Assay details: NCI tumour cell line growth inhibition, 48 h; in the data active means GI50 below about 0.43 µM; inactive means the rest
Classes used: yes (1) = active, no (0) = inactive

Compound	Experimental system	Category label
N[C@H](C(=O)O)[C@H]1ON=C(Cl)[C@@H]1O	HOP-62 NSCLC	no (0)
COc1cc(NC(N)=NCCC(C)(C)Oc2ccc(C(F)(F)F)cc2)ncc1C#N	HOP-62 NSCLC	no (0)
CC(=O)[CH-]C(C)=O.CC(=O)[CH-]C(C)=O.[CH2-]CCC.[CH2-]CCC.[Sn+4]	HOP-62 NSCLC	no (0)
COc1cc(-c2cc3ncccc3c3nc(N)c4cccnc4c23)cc(OC)c1OC	HOP-62 NSCLC	no (0)
COC(=O)c1c2c(c[n+]([O-])c1C)C(=O)C=CC2=O	HOP-62 NSCLC	no (0)
COc1cc(/C=C2\C(=O)Nc3cc(C)c(O)cc32)cc(OC)c1OC	HOP-62 NSCLC	no (0)
COc1ccc(C(=O)/C=C/c2ccc(C)cc2)cc1OC	HOP-62 NSCLC	no (0)
CC[N+](CC)=c1sc2c(s1)C(c1ccc(Cl)cc1)Oc1ccc(Cl)cc1-2 (stereo not drawn)	HOP-62 NSCLC	no (0)
CCN(Cc1cccc(F)c1)c1ccc(CO)c(Cl)c1	HOP-62 NSCLC	no (0)
CCOc1ccc2nc(SCc3nc4n(n3)S(=O)(=O)c3ccccc3N4C)sc2c1	HOP-62 NSCLC	no (0)
COc1ccc(-c2cn[nH]c2-c2cc(OC)c3c(c2)OCO3)cc1	HOP-62 NSCLC	yes (1)
C=C1C(=O)O[C@H]2[C@H]1CC/C(COC(=O)CSCCSCC(=O)OC/C1=C/CC[C@@]3(C)O[C@H]3[C@H]3OC(=O)C(=C)[C@@H]3CC1)=C\CC[C@@]1(C)O[C@@H]21	HOP-62 NSCLC	no (0)
Cn1cc(C2=C(c3cn(CCCCN)c4ccccc34)C(=O)NC2=O)c2ccccc21	HOP-62 NSCLC	no (0)
